Each record here notes measured IC50.
study-system: Kv1.6 (Homo sapiens, UniProt P17658)
Construct: expressed in transfected cells
Sequence (P17658 whole entry): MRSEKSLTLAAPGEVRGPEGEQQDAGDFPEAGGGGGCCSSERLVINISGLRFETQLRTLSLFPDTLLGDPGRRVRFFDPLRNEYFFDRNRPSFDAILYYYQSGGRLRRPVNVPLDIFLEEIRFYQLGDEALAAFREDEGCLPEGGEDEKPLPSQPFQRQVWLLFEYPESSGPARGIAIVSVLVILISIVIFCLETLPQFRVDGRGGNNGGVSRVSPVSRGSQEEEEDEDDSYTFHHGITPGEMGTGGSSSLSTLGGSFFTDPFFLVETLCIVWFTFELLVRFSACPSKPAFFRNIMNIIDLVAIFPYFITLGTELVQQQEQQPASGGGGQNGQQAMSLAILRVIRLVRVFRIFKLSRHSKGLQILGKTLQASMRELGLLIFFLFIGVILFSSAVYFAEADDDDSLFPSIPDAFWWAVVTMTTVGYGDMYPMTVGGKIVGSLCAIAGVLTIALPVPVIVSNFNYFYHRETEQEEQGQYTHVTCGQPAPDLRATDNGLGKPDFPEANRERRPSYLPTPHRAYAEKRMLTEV
procedure-text: Patch clamp assay (QPatch), Kv1.6
Assay type: cell-based
condition-description: QPatch; CHO cells stably expressing human Kv1.6; read-out: Potency IC50, Kv1.6
assay-metric: IC50

INSERT INTO measurements (substance, study_system, result_value) VALUES
  ('H-NMDMRC(1)SASVEC(2)KQKC(3)LAIGSIFGKC(1)MNKKC(2)KC(3)YPR-NH2 [Peptide 55]', 'Kv1.6 (Homo sapiens, UniProt P17658)', '> 3000 nM'),
  ('H-RSCIDTIPKSRCTAFQCKHSMKYRLSFCRKTCGTC-OH [ShK, reference compound]', 'Kv1.6 (Homo sapiens, UniProt P17658)', '0.19 nM'),
  ('H-P[Nle]E[Nle]RC(1)SASVEC(2)KQKC(3)LAAIGSIFGKC(1)[Nle]NKKC(2)KC(3)YPR-NH2 [Peptide 101]', 'Kv1.6 (Homo sapiens, UniProt P17658)', '> 3000 nM'),
  ('H-QMDMRC(1)SASVEC(2)KQKC(3)LKAIGRGFGKC(1)MNKKC(2)KC(3)YPR-OH [Peptide 2]', 'Kv1.6 (Homo sapiens, UniProt P17658)', '1810 nM'),
  ('H-NMDMRC(1)SASVEC(2)KQKC(3)LKAIESIFGKC(1)MNKKC(2)KC(3)YPR-NH2 [Peptide 23]', 'Kv1.6 (Homo sapiens, UniProt P17658)', '> 3000 nM'),
  ('H-QMDMRC(1)SASVEC(2)KQKC(3)LKAIGSIFGKC(1)MNKKC(2)KC(3)YPR-OH [Peptide 1]', 'Kv1.6 (Homo sapiens, UniProt P17658)', '> 3000 nM'),
  ('H-NMDMRC(1)SASVEC(2)KQKC(3)LKAIGSIFGKC(1)MNKKC(2)HC(3)YPR-NH2 [Peptide 38]', 'Kv1.6 (Homo sapiens, UniProt P17658)', '> 3000 nM'),
  ('H-NMDMRC(1)SASVQC(2)KQKC(3)LKAIGSIFGKC(1)MNKKC(2)KC(3)YPR-NH2 [Peptide 29]', 'Kv1.6 (Homo sapiens, UniProt P17658)', '252 nM'),
  ('H-NMDMRC(1)SASVEC(2)KQKC(3)LKAIGSIFGKC(1)MNGKC(2)KC(3)YPR-NH2 [Peptide 37]', 'Kv1.6 (Homo sapiens, UniProt P17658)', '> 3000 nM'),
  ('H-NMDMRC(1)SASVEC(2)KQKC(3)LKAIGSIFGKC(1)[Nle]NKKC(2)KC(3)YPR-NH2 [Peptide 17]', 'Kv1.6 (Homo sapiens, UniProt P17658)', '2460 nM'),
  ('H-AAAISCVGSPECPPKCRAQGCKNGKCMNRKCKCYYC-NH2 [Vm24, reference compound]', 'Kv1.6 (Homo sapiens, UniProt P17658)', '21 nM'),
  ('H-N[Nle]D[Nle]RC(1)SASVEC(2)KKKC(3)LKAIGSIFGKC(1)[Nle]NKKC(2)KC(3)YPR-NH2 [Peptide 46]', 'Kv1.6 (Homo sapiens, UniProt P17658)', '> 3000 nM');

* * *

study-system: Kv1.2 (Homo sapiens, UniProt P16389)
Construct: expressed in transfected cells
Sequence (P16389 whole entry): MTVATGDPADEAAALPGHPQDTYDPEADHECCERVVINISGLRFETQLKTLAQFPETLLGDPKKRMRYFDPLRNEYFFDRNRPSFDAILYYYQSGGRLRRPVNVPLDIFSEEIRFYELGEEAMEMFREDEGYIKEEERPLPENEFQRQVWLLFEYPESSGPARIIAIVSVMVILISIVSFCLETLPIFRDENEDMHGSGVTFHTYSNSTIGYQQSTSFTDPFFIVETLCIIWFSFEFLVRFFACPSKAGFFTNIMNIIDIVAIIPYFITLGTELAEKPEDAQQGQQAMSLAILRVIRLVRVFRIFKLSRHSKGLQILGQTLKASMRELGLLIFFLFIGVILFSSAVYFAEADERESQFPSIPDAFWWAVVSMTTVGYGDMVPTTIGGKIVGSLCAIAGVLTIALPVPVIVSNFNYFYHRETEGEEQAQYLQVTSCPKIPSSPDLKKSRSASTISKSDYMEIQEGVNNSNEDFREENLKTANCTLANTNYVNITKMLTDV
procedure-text: Patch clamp assay (QPatch), Kv1.2
Type: cell-based
condition-description: ratio of IC50 Kv1.2/Kv1.3
assay-metric: Selectivity Kv1.2/Kv1.3

INSERT INTO results (substance, result_value) VALUES
  ('H-N[Nle]D[Nle]RC(1)SASVEC(2)KQKC(3)LKAIGSPFGKC(1)[Nle]NKKC(2)KC(3)YPR-NH2 [Peptide 63]', 1740),
  ('H-NMDMRC(1)KASVEC(2)KQKC(3)LKAIGSIFGKC(1)MNKKC(2)KC(3)YPR-NH2 [Peptide 26]', 761),
  ('H-NMDMRC(1)SASVEC(2)KQKC(3)LAIGSIFGKC(1)MNKKC(2)KC(3)YPR-NH2 [Peptide 55]', 121),
  ('H-C(1)SASVEC(2)KQKC(3)LKAIGSIFGKC(1)MNKKC(2)KC(3)YPR-OH [Peptide 124]', 878);
